Data origin: patent US20250304549A1

pIC50: −log10 of the molar value. Where a name gives a salt, the structure may show the parent alone.
Target or system LSD1 (Homo sapiens (Human)); recorded quantity pIC50.
Value type: pIC50

Molecule	Value type	Value
CNC1CCN(c2ncc(-c3ccc(NCc4ccc(C(=O)NO)cc4)c(O)c3)c(-c3ccc(C#N)c(F)c3)c2C#N)CC1 [Example 39, hydrochloride]	pIC50	9.82
N#Cc1ccc(-c2nc(N3CC4CC3CC4N)n3ccnc3c2-c2ccc(OCCCCCCC(=O)NO)c(O)c2)cc1F (centres unmarked) [Example 22, hydrochloride]	pIC50	9.51
CC(C)(O)Cn1nnc2cc(-c3cnc(N4CCC(NCc5ccc(/C=C/C(=O)NO)cn5)CC4)c(C#N)c3-c3ccc(C#N)c(F)c3)ccc21 [Example 224, formate]	pIC50	9.72
COc1ccc(-c2cnc(N3CCC(NC(=O)CCCCCCC(=O)NO)CC3)c(C#N)c2-c2ccc(C#N)c(F)c2)cc1O [Example 177, formate]	pIC50	6.02
COc1ccc(-c2cnc(N3CCC(Nc4ncc(C(=O)NO)cn4)CC3)c(C#N)c2-c2ccc(C#N)c(F)c2)cc1O [Example 83, formate]	pIC50	8.07
COc1cc(F)c(-c2cnc(N3CCC(NCc4ccc(/C=C/C(=O)NO)cc4)CC3)c(C#N)c2-c2ccc(C#N)nc2)cc1O [Example 255, formate]	pIC50	8.81
COc1ccc(-c2cnc(N3CCC(NCc4ccc(/C=C/C(=O)NO)cc4)CC3)c(C#N)c2-c2ccc(C#N)cc2F)cc1O [Example 134, formate]	pIC50	7.87
COc1ccc(-c2cnc(N3CCC(NCc4ccc(/C=C/C(=O)NO)cc4)CC3)c(C#N)c2-c2ccc([N+](=O)[O-])cc2)cc1O [Example 150, formate]	pIC50	9.23
COc1ccc(-c2cnc(N3CCC(NC(C)c4ccc(/C=C/C(=O)NO)cc4)CC3)c(C#N)c2-c2ccc(C#N)c(F)c2)cc1O (centres unmarked) [Example 210, formate]	pIC50	8.95
N#Cc1ccc(-c2c(-c3ccc(C(F)(F)F)c(O)c3)cnc(N3CCC(NCc4ccc(/C=C/C(=O)NO)cc4)CC3)c2C#N)cc1F	pIC50	8.83
N#Cc1ccc(-c2c(-c3ccc(C(F)(F)F)c(O)c3)cnc(N3CCC(NCc4cnc(/C=C/C(=O)NO)nc4)CC3)c2C#N)cc1F [Example 186, formate]	pIC50	7.99
CC1(N)CCN(c2ncc(-c3ccc(/C=C/C(=O)NO)c(O)c3)c(-c3ccc(C#N)c(F)c3)c2C#N)CC1 [Example 64, formate]	pIC50	8.85
Cc1ccc(-c2c(-c3ccc(C#N)c(F)c3)nc(N3CCC(NC(=O)CCCCCCC(=O)NO)CC3)n3ccnc23)cc1O [Example 56, hydrochloride]	pIC50	7.04
COc1cc(-c2cnc(N3CCC(NCc4ccc(/C=C/C(=O)NO)cn4)CC3)c(C#N)c2-c2ccc(C#N)c(F)c2)ccc1O	pIC50	7.20
COc1ccc(-c2cnc(N3CCC(NCc4ccc(/C=C/C(=O)NO)cc4)CC3)c(F)c2-c2ccc(C#N)nc2)cc1O [Example 268, formate]	pIC50	6.83
Cn1nnc2cc(-c3cnc(N4CCC(NCc5ccc(/C=C/C(=O)NO)cc5)CC4)c(C#N)c3-c3ccc(C#N)c(F)c3)ccc21 [Example 141, formate]	pIC50	8.76
CS(=O)(=O)c1ccc(-c2c(OCCCCCCC(=O)NO)cc(N3CCC(N)CC3)nc2-c2ccc(C#N)c(F)c2)cc1 [Example 4, hydrochloride]	pIC50	7.92
COc1ccc(-c2c(-c3ccc(C#N)c(F)c3)nc(N3CCC(NCc4ccc(/C=C/C(=O)NO)cc4)CC3)n3ccnc23)cc1O [Example 70, formate]	pIC50	8.93
COc1cc(F)c(-c2cnc(N3CCC(NCc4ccc(/C=C/C(=O)NO)cc4)CC3)c(F)c2-c2ccc(C#N)nc2)cc1O [Example 270, formate]	pIC50	7.61
COc1cc(N2CCC(N)CC2)nc(-c2ccc(C#N)c(F)c2)c1-c1ccc(OC/C=C/C(=O)NO)c(O)c1 [Example 29, hydrochloride]	pIC50	9.02
